Listing of recorded MurB IC50 by entry.
Target: E. coli Enopyruvyl-UPD-N-acetylglucosamine reductase, Mur B (Escherichia coli, UniProt P08373)
Sequence (P08373 whole entry): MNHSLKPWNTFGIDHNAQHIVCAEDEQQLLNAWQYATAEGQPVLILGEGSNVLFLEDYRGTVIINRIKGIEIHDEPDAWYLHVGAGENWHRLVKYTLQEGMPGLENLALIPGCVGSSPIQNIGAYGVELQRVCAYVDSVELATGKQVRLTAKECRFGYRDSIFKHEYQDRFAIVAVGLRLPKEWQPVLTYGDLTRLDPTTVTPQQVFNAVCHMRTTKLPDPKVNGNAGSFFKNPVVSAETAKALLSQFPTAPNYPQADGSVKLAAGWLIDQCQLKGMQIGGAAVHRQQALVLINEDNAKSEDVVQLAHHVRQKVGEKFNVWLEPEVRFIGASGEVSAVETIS
Test: biochemical
Conditions: (E) E. coli enzyme

Incoming: Give the measured MurB IC50 for "O=C1O/C(=C\c2cccc(-c3cccc(Cl)c3)c2)C(O)=C1c1cccc(Cl)c1"
Outgoing: 4 µg/mL

Incoming: Give the measured MurB IC50 for "O=C1O/C(=C\c2cccc(C(F)(F)F)c2)C(O)=C1c1ccc2ccccc2c1"
Outgoing: 10 (E) μg/mL

Incoming: Give the measured MurB IC50 for "O=C1O/C(=C\c2cc(C(F)(F)F)ccc2Cl)C(O)=C1c1ccc(-c2ccccc2)c(F)c1"
Outgoing: 1 (E) μg/mL

Incoming: Give the measured MurB IC50 for O=C1OC(=Cc2cccc3ccccc23)C(O)=C1c1ccc(C=NO)cc1 (mixture of isomers)
Outgoing: > 25 µg/mL

Incoming: Give the measured MurB IC50 for "O=C1O/C(=C\c2cccc(C(F)(F)F)c2Cl)C(O)=C1c1ccc(-c2ccccc2)c(F)c1"
Outgoing: 1 (E) μg/mL

Next:
Incoming: Give the measured MurB IC50 for "O=C1O/C(=C\c2cccc3ccccc23)C(O)=C1c1cccc(C(F)(F)F)c1"
Outgoing: 8 µg/mL

Incoming: Give the measured MurB IC50 for O=C1OC(=Cc2ccc(-c3ccccc3)cc2)C(O)=C1c1cccc(C(F)(F)F)c1 (mixture of isomers)
Outgoing: 6 (E) μg/mL

Incoming: Give the measured MurB IC50 for Cc1ccc(C=C2OC(=O)C(c3ccc(Cl)cc3)=C2O)s1 [Example 14]
Outgoing: >25 (E) μg/mL

Incoming: Give the measured MurB IC50 for "O=C1O/C(=C\c2ccccc2-c2ccc(Cl)c(Cl)c2)C(O)=C1c1ccc(Cl)c(Cl)c1"
Outgoing: 2 (E); 2 (S) μg/mL

Incoming: Give the measured MurB IC50 for Cc1ccc(C=C2OC(=O)C(c3ccc(Cl)cc3)=C2O)s1 (mixture of isomers) [Example 13]
Outgoing: 12 (E) μg/mL

Incoming: Give the measured MurB IC50 for "O=C1O/C(=C\c2cccc(C(F)(F)F)c2)C(O)=C1c1ccc(-c2ccccc2)c(F)c1"
Outgoing: 12 (E) μg/mL

Incoming: Give the measured MurB IC50 for "O=C1O/C(=C\c2ccc(-c3cccc(C(F)(F)F)c3)cc2)C(O)=C1c1cccc(C(F)(F)F)c1"
Outgoing: 4 (E) μg/mL

Incoming: Give the measured MurB IC50 for "N#Cc1ccc(C2=C(O)/C(=C/c3ccc(-c4ccc(C#N)cc4)cc3)OC2=O)cc1"
Outgoing: 15 (E) μg/mL
